Tested on: K24384-001-R-PDC KRAS patient-derived spheroid viability;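 also: spheroids exposed to agents for 7 days before readout; 100% = DMSO vehicle control viability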
Assay: Anticancer human tumor K24384-001-R-PDC patient-derived pancreatic adenocarcinoma cell line growth inhibition [KRAS2]
Conditions: second compound 0.1 µM; first compound 0.01 µM; active compounds read low; spheroids with HUVEC and MSC
Each item that follows carries a reported viability, T/C.
Property Label: viability, T/C

* CC(=O)OC12COC1CC(O)C1(C)C(=O)C(O)C3=C(C)C(OC(=O)C(O)C(NC(=O)OC(C)(C)C)c4ccccc4)CC(O)(C(OC(=O)c4ccccc4)C21)C3(C)C (configuration not stated) + C=CC(=O)N1CCN(c2nc(=O)n(-c3c(C)ccnc3C(C)C)c3nc(-c4c(O)cccc4F)c(F)cc23)C(C)C1 | 23.8%
* Cn1ncnc1[C@H]1c2n[nH]c(=O)c3cc(F)cc(c23)N[C@@H]1c1ccc(F)cc1 + CC1OCC2(CCN(c3cnc(Sc4ccnc(N)c4Cl)c(N)n3)CC2)C1N | 66.9%
